Where do the numbers come from? From paper PMC6201103.

- EXPERIMENT_DESCRIPTION: Proliferation, MultiTox-Fluor multiplex cytotoxicity assay on BT cells
- Format: cell-based, bovine
- CONDITION_PARAMETERS: bovine, MultiTox-Fluor assay
REPORTED_PROPERTY: CC50

Record O=C(N/C(=C\c1ccccc1)C(=O)N1CCC(O)(c2ccc(Br)cc2)CC1)c1ccccc1 [K22] . Reported CC50: > 350 µM

---

- Tested on: ZIKV
- EXPERIMENT_DESCRIPTION: ZIKV infectivity (TCID50 titration of supernatant) and replication (E protein flow cytometry) in K22-treated Vero cells
- Format: cell-based, Zika virus
- CONDITION_PARAMETERS: Zika virus; 48 h p.i., Vero cells, MOI 0.1 TCID50/cell
REPORTED_PROPERTY: IC50
Please state the number and follow it with the unit.

Measured on ZIKV, `O=C(N/C(=C\c1ccccc1)C(=O)N1CCC(O)(c2ccc(Br)cc2)CC1)c1ccccc1` has a documented IC50 of 2100 nM
